Target: T1, IL-18 receptor (IL-18Rα/IL-18Rβ) overexpressed on HEK-Blue IL-18 cells (Homo sapiens (Human), UniProt Q13478 19-541; O95256 20-599)
T1 sequence 1: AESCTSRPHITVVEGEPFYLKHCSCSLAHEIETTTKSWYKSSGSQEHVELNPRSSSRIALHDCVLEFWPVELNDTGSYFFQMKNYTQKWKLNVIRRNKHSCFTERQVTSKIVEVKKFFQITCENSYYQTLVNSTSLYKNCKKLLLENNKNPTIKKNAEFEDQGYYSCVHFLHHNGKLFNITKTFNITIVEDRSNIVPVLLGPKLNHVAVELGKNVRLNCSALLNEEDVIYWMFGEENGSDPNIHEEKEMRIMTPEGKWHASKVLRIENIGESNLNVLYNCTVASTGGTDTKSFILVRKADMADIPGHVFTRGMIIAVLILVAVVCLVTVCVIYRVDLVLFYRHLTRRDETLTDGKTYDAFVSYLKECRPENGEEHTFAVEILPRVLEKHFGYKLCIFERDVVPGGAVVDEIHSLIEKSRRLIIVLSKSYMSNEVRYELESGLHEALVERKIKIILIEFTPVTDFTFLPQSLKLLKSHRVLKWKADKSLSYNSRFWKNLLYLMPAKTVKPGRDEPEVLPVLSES
T1 sequence 2: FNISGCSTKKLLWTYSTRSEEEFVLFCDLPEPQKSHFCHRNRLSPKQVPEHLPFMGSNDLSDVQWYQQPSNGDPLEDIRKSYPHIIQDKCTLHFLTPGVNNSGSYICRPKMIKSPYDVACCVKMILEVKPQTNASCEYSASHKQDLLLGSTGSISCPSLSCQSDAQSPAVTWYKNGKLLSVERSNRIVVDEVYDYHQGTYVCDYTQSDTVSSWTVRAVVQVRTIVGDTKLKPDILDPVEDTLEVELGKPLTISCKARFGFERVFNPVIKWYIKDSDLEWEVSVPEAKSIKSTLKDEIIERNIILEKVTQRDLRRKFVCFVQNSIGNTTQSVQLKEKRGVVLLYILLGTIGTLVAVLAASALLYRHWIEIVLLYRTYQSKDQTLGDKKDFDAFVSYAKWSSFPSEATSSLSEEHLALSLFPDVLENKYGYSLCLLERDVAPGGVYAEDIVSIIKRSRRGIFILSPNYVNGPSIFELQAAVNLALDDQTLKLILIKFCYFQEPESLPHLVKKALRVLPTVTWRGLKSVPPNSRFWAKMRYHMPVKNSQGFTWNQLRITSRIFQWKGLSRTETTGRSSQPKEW
Assay: cell-based or functional assay
Decision: HEK-Blue IL-18: Abs 405 compared against 0.6 Abs; not below it gives rule met, below it gives rule not met.

Solved cases (4 shown):
- binder: "DGL254 (bispecific antibody, V domains shown) V domain 1: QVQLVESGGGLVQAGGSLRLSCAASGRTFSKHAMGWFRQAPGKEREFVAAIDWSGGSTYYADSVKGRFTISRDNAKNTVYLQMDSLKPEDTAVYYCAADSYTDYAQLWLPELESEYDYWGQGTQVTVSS V domain 2: QVQLVESGGGLVQAGGSLRLSCAASESIFSFVAMGWYRQAPGKQRELVVKISSGGSTNYADSVKGRFTISRDNAKNTVYLEMNSLKFEDTGVYYCNAVRPNGMDYWGKGTLVTVSS"
  label value: "rule not met"
- binder: "DGL317 (bispecific antibody, V domains shown) V domain 1: QVQLQESGGGLVQPGGSLRLSCAASGFIFSNWYMRWVRQAPGEGLEWVSSINSGGDDTDYADSVKGRFTISRDNAKGTLYLQMHSLKPEDTALYYCERGADRVRGQGTQVTVSS V domain 2: QVQLVESGGGLVQAGGSLRLSCAASGMFFSIGEMGWYRQAPGKQREMVARITRDGRINYADSVEGRFTASRNVAKTTLFLQMNSLKPEDTANYQCTVRRWDEEYWGKGTLVTVSD"
  label value: "rule met"
- binder: "DGL255 (bispecific antibody, V domains shown) V domain 1: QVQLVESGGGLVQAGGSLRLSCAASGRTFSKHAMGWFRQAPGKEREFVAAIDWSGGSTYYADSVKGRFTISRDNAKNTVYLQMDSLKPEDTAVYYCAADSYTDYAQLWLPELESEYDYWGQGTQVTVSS V domain 2: QVQLVESGGGLVQPGGSLRLSCAASRITFSIYDMGWYRQAPGKQRELVASITRRGSTNYADSTKGRFTISRDNGKNTMYLQGNSLKPEDTAVYYCNARDILGRDYWGQGTQVTVSS"
  label value: "rule not met"
- binder: "DGL297 (bispecific antibody, V domains shown) V domain 1: QVQLVESGGGLVQAGGSLRLSCAASGRTFSSYTMGWFRQAPGKEREFVAAISWSAGRTYYADSVKGRFTISRDNAKNTVYLQMNSLKPEDTAVYFCAAEEAPDWAPIDCSGYGCLSLYDYWGQGTQVTVSS V domain 2: QVQLVESGGDLVLPGGSLKLSCEASGSISSRNSMAWYRRAPGKQRELVAAISSISSGGRTDYADFVKGRFTIFRDTAKNMVYLQMNNLKPEDTAVYDCDDPIRVASLAYDDWGQGTQVTVSS"
  label value: "rule met"

IN: Answer whether HEK-Blue IL-18: Abs 405 of DGL321 (bispecific antibody, V domains shown) V domain 1: QVQLQESGGGLVQPGGSARLSCVASGIIFNDYHMGWYRQAPGKQRDLVAGITAGGSTTYADSVKGRFTISRDNAKHTVYLQMNNLSPEDTAVYYCNTFYNAILDWGKGTLVTVSS V domain 2: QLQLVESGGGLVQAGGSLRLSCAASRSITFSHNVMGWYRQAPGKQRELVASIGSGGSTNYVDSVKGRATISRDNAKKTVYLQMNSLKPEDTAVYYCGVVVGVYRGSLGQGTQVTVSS is greater than or equal to 0.6 Abs.
OUT: rule not met
